These measurements were taken from the supplement of paper PMC11246515.

Experiment: total protein half-life in vivo (active degradation + dilution); higher = more stable protein
Conditions: E. coli NCM3722 delta-smpB; growth: N-lim chemostat; doubling time 6 h

monomerSequence: MKAARQQAIVDLLLNHTSLTTEALSEQLKVSKETIRRDLNELQTQGKILRNHGRAKYIHRQNQDSGDPFHIRLKSHYAHKADIAREALAWIEEGMVIALDASSTCWYLARQLPDINIQVFTNSHPICHELGKRERIQLISSGGTLERKYGCYVNPSLISQLKSLEIDLFIFSCEGIDSSGALWDSNAINADYKSMLLKRAAQSLLLIDKSKFNRSGEARIGHLDEVTHIISDERQVATSLVTA [P0ACK8]
total protein half-life in vivo [h]: 0.618
--
monomerSequence: MKTLILFSTRDGQTREIASYLASELKELGIQADVANVHRIEEPQWENYDRVVIGASIRYGHYHSAFQEFVKKHATRLNSMPSAFYSVNLVARKPEKRTPQTNSYARKFLMNSQWRPDRCAVIAGALRYPRYRWYDRFMIKLIMKMSGGETDTRKEVVYTDWEQVANFAREIAHLTDKPTLK [P0ACB4]
total protein half-life in vivo [h]: 5.74
--
monomerSequence: MPRANEIKKGMVLNYNGKLLLVKDIDIQSPTARGAATLYKMRFSDVRTGLKVEERFKGDDIVDTVTLTRRYVDFSYVDGNEYVFMDKEDYTPYTFTKDQIEEELLFMPEGGMPDMQVLTWDGQLLALELPQTVDLEIVETAPGIKGASASARNKPATLSTGLVIQVPEYLSPGEKIRIHIEERRYMGRAD [P0A6N8]
total protein half-life in vivo [h]: 4.45
--
monomerSequence: METKNLTIGERIRYRRKNLKHTQRSLAKALKISHVSVSQWERGDSEPTGKNLFALSKVLQCSPTWILFGDEDKQPTPPVEKPVALSPKELELLELFNALPESEQDTQLAEMRARVKNFNKLFEELLKARQRTNKR
total protein half-life in vivo [h]: 5.86

* * *

Reported total protein half-life in vivo values for a set of sequences
Assay: total protein half-life in vivo (active degradation + dilution); higher = more stable protein
Conditions: E. coli NCM3722 delta-lon; growth: N-lim chemostat; doubling time 6 h

monomerSequence: MLSNDILRSVRYILKANNNDLVRILALGNVEATAEQIAVWLRKEDEEGFQRCPDIVLSSFLNGLIYEKRGKDESAPALEPERRINNNIVLKKLRIAFSLKTDDILAILTEQQFRVSMPEITAMMRAPDHKNFRECGDQFLRYFLRGLAARQHVKKG
total protein half-life in vivo / h: 6.64

monomerSequence: MEQLRAELSHLLGEKLSRIECVNEKADTALWALYDSQGNPMPLMARSFSTPGKARQLAWKTTMLARSGTVRMPTIYGVMTHEEHPGPDVLLLERMRGVSVEAPARTPERWEQLKDQIVEALLAWHRQDSRGCVGAVDNTQENFWPSWYRQHVEVLWTTLNQFNNTGLTMQDKRILFRTRECLPALFEGFNDNCVLIHGNFCLRSMLKDSRSDQLLAMVGPGLMLWAPREYELFRLMDNSLAEDLLWSYLQRAPVAESFIWRRWLYVLWDEVAQLVNTGRFSRRNFDLASKSLLPWLA [P0AB03]
total protein half-life in vivo / h: 2.51

* * *

Assay: total protein half-life in vivo (active degradation + dilution); higher = more stable protein
Details: E. coli NCM3722 delta-clpP delta-lon delta-hslV; growth: N-lim chemostat; doubling time 6 h
Reported total protein half-life in vivo values for a set of sequences

monomerSequence: MKKLTVAALAVTTLLSGSAFAHEAGEFFMRAGSATVRPTEGAGGTLGSLGGFSVTNNTQLGLTFTYMATDNIGVELLAATPFRHKIGTRATGDIATVHHLPPTLMAQWYFGDASSKFRPYVGAGINYTTFFDNGFNDHGKEAGLSDLSLKDSWGAAGQVGVDYLINRDWLVNMSVWYMDIDTTANYKLGGAQQHDSVRLDPWVFMFSAGYRF [P0A915]
units: h
total protein half-life in vivo: 6.65

monomerSequence: MRLEFSIYRYNPDVDDAPRMQDYTLEADEGRDMMLLDALIQLKEKDPSLSFRRSCREGVCGSDGLNMNGKNGLACITPISALNQPGKKIVIRPLPGLPVIRDLVVDMGQFYAQYEKIKPYLLNNGQNPPAREHLQMPEQREKLDGLYECILCACCSTSCPSFWWNPDKFIGPAGLLAAYRFLIDSRDTETDSRLDGLSDAFSVFRCHSIMNCVSVCPKGLNPTRAIGHIKSMLLQRNA
units: h
total protein half-life in vivo: 6.38
